protocol-text: Solubility test, Test Method 2 (sample approx. 300 μg/mL, shaken 10 minutes at room temperature, filtrate quantified by HPLC)
Assay type: physicochemical
condition-summary: pH 6.8, fassgf or other biorelevant, thermodynamic from solid, JP2 with 15 mM sodium taurocholate, 10 minutes shaking, approx. 300 μg/mL added, in terms of free form, read-out: Solubility JP2 + TC
measurement-label: solubility at 10 min

Request: Given Cc1ccc(S(=O)(=O)O)cc1.Cc1nsc(-c2nnc3n2CCN(C(=O)c2ccc(F)cc2)[C@@H]3C)n1 , state its recorded solubility at 10 min.
Response: > 100 µg/mL
